# Test system: Serratia marcescens S6
# procedure-details: MIC, NCCLS broth microdilution
# Format: cell-based
# stated-conditions: with clavulanate (clavulanic acid)
Entries and their MIC of antibiotic at fixed inhibitor concentration of 4 mg/L values follow.
The reply should be a number in µg/mL, with the unit left off.

{"columns": ["compound", "numeric-readout"],
 "data": [
  ["CC1C(NC(=O)C(=NOCc2cc(=O)c(O)cn2O)c2cccc(N)n2)C(=O)N1S(=O)(=O)O (stereo not shown)", 2]
]}

Here's the next entry for you.
Measured MIC of antibiotic at fixed inhibitor concentration of 4 mg/L of CC1C(NC(=O)C(=NOCc2cc(=O)c(O)cn2O)c2csc(N)n2)C(=O)N1S(=O)(=O)O (stereo not shown) : 4

* * *

Entries and their MIC of antibiotic values follow.
# Test system: Pseudomonas aeruginosa MK1184
# procedure-details: MIC, NCCLS broth microdilution
# Assay type: cell-based
# stated-conditions: antibiotic alone, no inhibitor
The reply should be a number in µg/mL, with the unit left off.

Illustrative cases are given below, each with its answer.
{"columns": ["compound", "numeric-readout"],
 "data": [
  ["NC(=O)OCC1C(NC(=O)C(=NOCc2cc(=O)c(O)cn2O)c2csc(N)n2)C(=O)N1OCC(=O)O (stereo not shown) [Compound 41]", 4],
  ["CC1(C)C(NC(=O)C(=NOCc2cc(=O)c(O)cn2O)c2nsc(N)n2)C(=O)N1OS(=O)(=O)O (stereo not shown) [Compound 32]", 4]
]}

Pseudomonas aeruginosa MK1184 data for CC1(C)[C@H](NC(=O)/C(=N\OCc2cc(=O)c(O)cn2O)c2csc(N)n2)C(=O)N1OS(=O)(=O)O [Compound 26] ; its MIC of antibiotic: 2

* * *

# Tested on: Pseudomonas aeruginosa MK1184
# procedure-details: MIC, NCCLS broth microdilution
# Type: cell-based
# stated-conditions: MIC of antibiotic compound 1 with the labelled bridged monobactam of formula II and clavulanate, 4 mg/L each
parameter: MIC of antibiotic at fixed inhibitor concentration (4 mg/L) (µg/mL)
The reply should be a number in µg/mL, with the unit left off.

Pseudomonas aeruginosa MK1184 data for `O=C(Nc1ccc(NC(=O)N2CC[C@@H]3[C@H]2C(=O)N3S(=O)(=O)O)cc1)N1CCNCC1` ; its MIC of antibiotic at fixed inhibitor concentration (4 mg/L): 32

Pseudomonas aeruginosa MK1184 data for `O=C(N[C@H]1CCNC1)c1ccc[n+](CC(=O)N2CC[C@@H]3[C@H]2C(=O)N3S(=O)(=O)[O-])c1` ; its MIC of antibiotic at fixed inhibitor concentration (4 mg/L): 16

Pseudomonas aeruginosa MK1184 data for `NC(=O)c1ccc[n+](CC(=O)N2CC[C@@H]3[C@H]2C(=O)N3S(=O)(=O)[O-])c1` ; its MIC of antibiotic at fixed inhibitor concentration (4 mg/L): 4

Pseudomonas aeruginosa MK1184 data for `Nc1ccc[n+](CC(=O)N2CC[C@@H]3[C@H]2C(=O)N3S(=O)(=O)[O-])c1` ; its MIC of antibiotic at fixed inhibitor concentration (4 mg/L): 8

Pseudomonas aeruginosa MK1184 data for `Cc1ccc(C(N)=O)c[n+]1CC(=O)N1CC[C@@H]2[C@H]1C(=O)N2S(=O)(=O)[O-]` ; its MIC of antibiotic at fixed inhibitor concentration (4 mg/L): 8

* * *

Entries and their MIC of antibiotic at fixed inhibitor concentration of 4 mg/L values follow.
# Test system: Klebsiella pneumoniae CF104
# procedure-details: MIC, NCCLS broth microdilution
# Format: cell-based
# stated-conditions: with clavulanate (clavulanic acid)
The reply should be a number in µg/mL, with the unit left off.

Illustrative cases are given below, each with its answer.
{"columns": ["compound", "unit-string", "numeric-readout"],
 "data": [
  ["CC1(C)[C@H](NC(=O)/C(=N\\OCc2cc(=O)c(O)cn2O)c2csc(N)n2)C(=O)N1OS(=O)(=O)O", "µg/mL", 0.5],
  ["CC1C(NC(=O)C(=NOCc2cc(=O)c(O)cn2O)c2cccc(N)n2)C(=O)N1S(=O)(=O)O (stereo not shown)", "µg/mL", 32],
  ["CC1(C)S[C@@H]2[C@H](NC(=O)[C@H](N)c3ccc(O)cc3)C(=O)N2[C@H]1C(=O)O [Amoxicillin, amoxicillin, reference compound]", "µg/mL", 32]
]}

Measured MIC of antibiotic at fixed inhibitor concentration of 4 mg/L of CC1C(NC(=O)C(=NOCc2cc(=O)c(O)cn2O)c2csc(N)n2)C(=O)N1S(=O)(=O)O (stereo not shown) : 0.5

* * *

# Tested on: Klebsiella pneumoniae CF104
# procedure-details: MIC, NCCLS broth microdilution
# Type: cell-based
# stated-conditions: with 102 and sulbactam
Entries and their MIC of antibiotic at fixed inhibitor concentration of 4 mg/L values follow.
The reply should be a number in µg/mL, with the unit left off.

Illustrative cases are given below, each with its answer.
{"columns": ["compound", "unit-string", "numeric-readout"],
 "data": [
  ["CC1(C)[C@H](NC(=O)/C(=N\\OCc2cc(=O)c(O)cn2O)c2csc(N)n2)C(=O)N1OS(=O)(=O)O", "µg/mL", 1],
  ["C[C@H]1[C@H](NC(=O)/C(=N\\OCc2cc(=O)c(O)cn2O)c2nc(N)sc2Cl)C(=O)N1OS(=O)(=O)O", "µg/mL", 2],
  ["C[C@H]1[C@H](NC(=O)/C(=N\\OCc2cc(=O)c(O)cn2O)c2nccc(N)n2)C(=O)N1S(=O)(=O)O", "µg/mL", 2]
]}

Here's the next entry for you.
Measured MIC of antibiotic at fixed inhibitor concentration of 4 mg/L of C[C@H]1[C@H](NC(=O)/C(=N\OC(C)(C)C(=O)O)c2csc(N)n2)C(=O)N1S(=O)(=O)O [Aztreonam, aztreonam, reference compound] : 1

* * *

Entries and their MIC of antibiotic at fixed inhibitor concentration of 4 mg/L values follow.
# Test system: Klebsiella pneumoniae CF104
# procedure-details: MIC, NCCLS broth microdilution
# Type: cell-based
# stated-conditions: with 206 and clavulanate
The reply should be a number in mg/L, with the unit left off.

Illustrative cases are given below, each with its answer.
{"columns": ["compound", "numeric-readout"],
 "data": [
  ["C[C@H]1[C@H](NC(=O)/C(=N\\OCc2cc(=O)c(O)cn2C)c2csc(N)n2)C(=O)N1S(=O)(=O)O", 0.5],
  ["CC1C(NC(=O)C(=NOCc2cc(=O)c(O)cn2O)c2csc(N)n2)C(=O)N1S(=O)(=O)O (stereo not shown)", 0.25],
  ["CC1C(NC(=O)C(=NOCc2cc(=O)c(O)cn2O)c2nsc(N)n2)C(=O)N1S(=O)(=O)O (stereo not shown)", 8]
]}

Here's the next entry for you.
Klebsiella pneumoniae CF104 data for CC1C(NC(=O)C(=NOCc2cc(=O)c(O)cn2O)c2cccc(N)n2)C(=O)N1S(=O)(=O)O (stereo not shown) ; its MIC of antibiotic at fixed inhibitor concentration of 4 mg/L: 4

* * *

# Test system: Enterobacter cloacae P99
# procedure-details: MIC, NCCLS broth microdilution
# Assay type: cell-based
# stated-conditions: with clavulanate (clavulanic acid)
parameter: MIC of antibiotic at fixed inhibitor concentration of 4 mg/L (µg/mL)
The reply should be a number in µg/mL, with the unit left off.

{"columns": ["molecule", "numeric-readout"],
 "data": [
  ["CC1(C)[C@H](NC(=O)/C(=N\\OCc2cc(=O)c(O)cn2O)c2csc(N)n2)C(=O)N1OS(=O)(=O)O [Compound 26]", 8]
]}

Here's the next entry for you.
Measured MIC of antibiotic at fixed inhibitor concentration of 4 mg/L of CC1C(NC(=O)C(=NOCc2cc(=O)c(O)cn2O)c2csc(N)n2)C(=O)N1S(=O)(=O)O (stereo not shown) [Compound 1] : 32

* * *

# Test system: Acinetobacter sp. J2
# procedure-details: MIC, NCCLS broth microdilution
# Type: cell-based
# stated-conditions: Acinetobacter baumannii J2; with 206 and clavulanate
parameter: MIC of antibiotic at fixed inhibitor concentration of 4 mg/L (µg/mL)
The reply should be a number in µg/mL, with the unit left off.

Measured MIC of antibiotic at fixed inhibitor concentration of 4 mg/L of CC1C(NC(=O)C(=NOCc2cc(=O)c(O)cn2O)c2csc(N)n2)C(=O)N1S(=O)(=O)O (stereo not shown) : 4

Measured MIC of antibiotic at fixed inhibitor concentration of 4 mg/L of `C[C@H]1[C@H](NC(=O)/C(=N\OCc2cc(=O)c(O)cn2C)c2csc(N)n2)C(=O)N1S(=O)(=O)O` : 32

Measured MIC of antibiotic at fixed inhibitor concentration of 4 mg/L of CC1C(NC(=O)C(=NOCc2cc(=O)c(O)cn2O)c2nsc(N)n2)C(=O)N1S(=O)(=O)O (stereo not shown) : 16

* * *

# Test system: Pseudomonas aeruginosa MK1184
# procedure-details: MIC, NCCLS broth microdilution
# Type: cell-based
# stated-conditions: antibiotic alone, no inhibitor
parameter: MIC of antibiotic (µg/mL)
The reply should be a number in µg/mL, with the unit left off.

Pseudomonas aeruginosa MK1184 data for CC1(C)C(NC(=O)C(=NOCc2cc(=O)c(O)cn2O)c2csc(N)n2)C(=O)N1OCC(=O)O (stereo not shown) ; its MIC of antibiotic: 32

Pseudomonas aeruginosa MK1184 data for `NC(=O)OC[C@@H]1[C@H](NC(=O)/C(=N\OCc2cc(=O)c(O)cn2O)c2nsc(N)n2)C(=O)N1OS(=O)(=O)O` ; its MIC of antibiotic: 4

Pseudomonas aeruginosa MK1184 data for `C[C@H]1[C@H](NC(=O)/C(=N\OCc2cc(=O)c(O)cn2O)c2csc(N)n2)C(=O)N1OCC(=O)O` ; its MIC of antibiotic: 8

Pseudomonas aeruginosa MK1184 data for CC1C(NC(=O)C(=NOCc2cc(=O)c(O)cn2O)c2nsc(N)n2)C(=O)N1S(=O)(=O)O (stereo not shown) ; its MIC of antibiotic: 8

Where do these numbers come from? They come from patent US20160122320A1.
